Molecular target: Sodium-dependent noradrenaline transporter (Homo sapiens) (UniProt P23975)
Sequence (P23975 whole entry): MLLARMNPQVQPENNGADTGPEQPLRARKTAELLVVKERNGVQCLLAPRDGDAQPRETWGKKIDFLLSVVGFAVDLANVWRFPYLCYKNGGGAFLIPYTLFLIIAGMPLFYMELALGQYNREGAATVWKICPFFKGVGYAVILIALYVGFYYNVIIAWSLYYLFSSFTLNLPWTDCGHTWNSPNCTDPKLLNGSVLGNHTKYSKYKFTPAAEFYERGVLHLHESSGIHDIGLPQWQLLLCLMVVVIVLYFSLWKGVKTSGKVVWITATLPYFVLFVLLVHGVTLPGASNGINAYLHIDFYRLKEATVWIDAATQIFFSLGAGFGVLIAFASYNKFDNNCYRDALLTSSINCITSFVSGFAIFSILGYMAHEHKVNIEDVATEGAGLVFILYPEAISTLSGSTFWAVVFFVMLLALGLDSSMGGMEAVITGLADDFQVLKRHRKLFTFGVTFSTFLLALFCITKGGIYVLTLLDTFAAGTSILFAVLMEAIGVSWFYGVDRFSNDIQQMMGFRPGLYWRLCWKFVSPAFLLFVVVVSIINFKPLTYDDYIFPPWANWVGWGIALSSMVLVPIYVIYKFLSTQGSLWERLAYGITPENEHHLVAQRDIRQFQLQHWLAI
Conditions: dose 10-100 nM
Description: Inhibition of NET receptor (unknown origin) at 10 to 100 nM
Activity calls are given as the source filed them. The rule behind the calls is not given here.
Assay metric: inhibition

Line notation: Brc1cccc(CN2CCCC[C@H]3NCC[C@H]32)c1
inhibition: Active
--
Line notation: Clc1ccccc1CN1CCCC[C@H]2NCC[C@H]21
inhibition: Active
--
Line notation: Clc1ccc(CN2CCCC[C@H]3NCC[C@H]32)cc1
inhibition: Active
--
Line notation: Clc1cc(Cl)cc(CN2CCCC[C@H]3NCC[C@H]32)c1
inhibition: Active
--
Line notation: Clc1cccc(CN2CCCC[C@H]3NCC[C@H]32)c1
inhibition: Active
--
Line notation: Clc1cccc(CN2CCCC[C@H]3NCC[C@H]32)c1Cl
inhibition: Active

Per the record, Fc1cccc(CN2CCCC[C@H]3NCC[C@H]32)c1 has inhibition of Active
